# Tested on: MS2 coat protein
# test-protocol: apparent KD of MS2 coat protein; designed switch direction (-1 OFF switch, 1 ON switch): -1; higher = weaker reporter binding
# test-conditions: Eterna round: R95; input ligand: none
Class yes: apparent KD of MS2 coat protein at least 20 nM. Class no: apparent KD of MS2 coat protein below 20 nM.

Please indicate if the recorded apparent KD of MS2 coat protein for CCCAGGGCAGGAUAUAGAGGGCUAAACAUGAGGAUCACCCAUGUGACCUCGGAACAGUUGCUAGAAGGGCCAGAUU [Maedonxe] (puzzle: Exclusion 5) meets or exceeds 20 nM.
yes

Consider next the sequence GAGGGACAUGAGGAUCACCCAUGUGAGGAUAUGUAAGAGAGAAGAGAGAGGAUAAGAAACAGAAGGCGCGGGAG [JR_Exclu1_Sub090] (puzzle: Exclusion 1) in the same way.
yes

Also, GAUUGAGAGCAGGAUAUCUUAGAAAUGUAUGAAAGAGAAGGGCUCACAUGAGGAUCACCCAUGUGGUCCUAGAU [JL Dibiri mod 17] (puzzle: Exclusion 6) please.
yes

Please do the same for UUUAAUUUUUUUUUUUUACAAGCUUUUUGCUCGUCUUAUACAUGAGGAUCACCCAUGUGGGUAGAAAGUAAAUUAUC [JMF 46] (puzzle: Sensor v3, turn-off variant 2) as well.
no

Same question, GAUUGACAUGAGGAUCACCCAUGUGAGGAUAUCGGCUGGACCGUGUUGGCCUGCCUCUCGAGAAGGCGCAUAGG [Exclusion 1 V53] (puzzle: Exclusion 1) this time
yes

* * *

# System: MS2 coat protein
# test-protocol: apparent KD of MS2 coat protein; designed switch direction (-1 OFF switch, 1 ON switch): 1; higher = weaker reporter binding
# test-conditions: input ligand: microRNA oligo, concentration not stated
Answer each item with its documented apparent KD of MS2 coat protein.
The figure you give is taken to be in nM; do not add the unit.

Entry GAGGGCGAAAGCAACAUGAGGAUCACCCAUGUUGUCGGAGGGCAGGAUAUCCGGCGAAAGCAGAAGGAGAAGGGUCGAAAAGAA [AK SSNG3-V2-39] (Eterna round: R96, puzzle: Same State NG 3) : reported apparent KD of MS2 coat protein = ?
13.1

Okay, and AUACAUAUCAGAGGAUAUCACGUCGAAUAGACGUGAGAAGGCUGAUCACACAUGAAUAUUAAUACAUGAGGAUCACCCAUGUAU [SSNG1/14-A1] (Eterna round: R96, puzzle: Same State NG 1) ?
13.3

Now try ACAUGAGGAUCACCCAUGUAUGCUCAGGAAACUGUGCAACGUGAGGAUAUGGAUCCUAAUUGGAUCCAGAAGGCAUGAAUUAUU [Fiskers NG3ss - 23] (Eterna round: R96, puzzle: Same State NG 3) .
170

What would you report for GAGUGGCGAUUAGGAUAUACAGUGAUAAUGAUAGUAGAAGGAAUUGACAUGAGGAUCACCCAUGUAGGACUAAUCCAGAGAGAG [Parity 30 - Jieux - Same State NG 1] (Eterna round: R96, puzzle: Same State NG 1) ?
57

* * *

# Tested on: MS2 coat protein
# test-protocol: apparent KD of MS2 coat protein; designed switch direction (-1 OFF switch, 1 ON switch): 1; higher = weaker reporter binding
# test-conditions: Eterna round: R95; input ligand: FMN 200 uM
measured-metric: apparent KD of MS2 coat protein (nM)
Express your answer in nM, writing the number without its unit.

Fill in the blank: the reported apparent KD of MS2 coat protein of GGUAAACAUGAGGAUCACCCAUGUAAUAUAAUGGGAGGAUAUCUGAAUUAAUUAAAUUAAGGAGAAGGCCUAAUGU [Mat - Same State 1 - Mod of Eli - D50] (puzzle: Same State 1) is ____.
65.5

Same question for GGGAAGAGGGACAAGGAUAUGUCAAAAGAGACAUGAGGAUCACCCAUGUGGAGGUUGGAGCAGAGACAGAAGGUGUACGGAGAGA [JR_SS2_Sub009] (puzzle: Same State 2) please.
69.7

Same question for GGAGCCUGCACUGAGGAUAUUCAUAGUGUAACAUGAGGAUCACCCAUGUGUCGCCGUAGCGACUGGGAGAAGGCAGUGCGGCUCG [JL-ss2-3.06 ViennaUCT mod] (puzzle: Same State 2) please.
38.4

Input UAUAAACAUGAGGAUCACCCAUGUAAUAAUAUGGGAGGAUAUCAGAAUGUAUUUAUGUAAUGAGAAGGCCUAAUAU [Mat - Same State 1 - Mod of Eli - D69] (puzzle: Same State 1)
50.9

Try AGUCCAGCCUAAGCUGGACAAAAGCAUGUACAUGAGGAUCACCCAUGUUCAUGUACAAGCUUUUUGCUCGUCAAAAG [Mat - hsa-mir-208a - Mod of JL - 68] (puzzle: Sensor for hsa-mir-208a) next.
194

* * *

What apparent KD of MS2 coat protein was measured for each of the following?
# Test system: MS2 coat protein
# test-protocol: apparent KD of MS2 coat protein; higher = weaker reporter binding
# test-conditions: Eterna round: R107; input ligand: tryptophan 2.4 mM
A complete answer gives the number and then names the unit.

Quick one: apparent KD of MS2 coat protein of GUCCACAUGAGGAUCACCCAUGUAAGUGGGCGAGGACCGGUACGGCCGCCACUCGACAUGUUGACGAAAAGUCAGCAUGAGGACA [#SwitchBubble 3 #GuTurnoff #Tail] ?
101 nM

# repeat for GUCCUCGUGUCCGGUUUAGCGCAAAGCGCACGAGGACCGGUACGGCCGCCACUCGAAACAUGAGGAUCACCCAUGUGAAGAAUAA [Design 1]
17.8 nM

And for AAUAUAAGUGUAAUUAUAUGUAUCUCUGAUACCAGACUCUCAUGUGUCCCUUGGCAGCAGUUACAUGAGGAUCACCCAUGUAUUA [JR_Nu_SSTheophyA_Sub024] ?
84.5 nM

* * *

# Tested on: MS2 coat protein
# test-protocol: apparent KD of MS2 coat protein; higher = weaker reporter binding
# test-conditions: Eterna round: R107; input ligand: theophylline 20 uM
measured-metric: apparent KD of MS2 coat protein (nM)
Report the figure in nM without appending any unit label.

Query (sequence): UUGUUGUUUGGAAGGAGCGUGGAUGAGUUAGAACAUGAGGAUCACCCAUGUUGGAUGAUACCGCAGGUAGGUCGCCGGGUGGUGG [11.aA] ; field requested: apparent KD of MS2 coat protein
76.4

Item: UCACAUGAGGAUCACCCAUGUAUAGUUGAAGGAGCGAUCAGGAGGUCAGGUAGGUCGCAGCACAUGAGGAUCACCCAUGUAUCGA [DOUBLE!!! :-D #4]
72.7

Another sequence to look at: GCUAGGUCAUCGGCCGCCACUAACGACGGUUCCAACAUGAGGAUCACCCAUGUGCCACAUGCGCAUAGGACCGGGAUGACCUAGC [SSTB NP+V+V2 #5]
51.2

* * *

# Tested on: MS2 coat protein
# test-protocol: apparent KD of MS2 coat protein; higher = weaker reporter binding
# test-conditions: Eterna round: R107; input ligand: none
measured-metric: apparent KD of MS2 coat protein

What does the data say about its apparent KD of MS2 coat protein? Entry: AUAUAUACAUGAGGAUCACCCAUGUUAUUUCGAGGACCGGUACGGCCGCCACUCGAUAGAGUAGAAGUAUUUUGGGAUAGUUGAU [JR_SSTryptoA_Sub015]
18.5 nM

And CGGGCCGCUGCGGAUACCAGUUGAGCAUAGGUAGUGUAUGACAUGAGGAUCACCCAUGUUAACCCUUGGCAGCCGAGAGGGCAGA [theeternabot_exclusion_MS2_Theo_B_13] ?
11.6 nM

Item: AAAAGAGGUGGAAGGAGCGGGAGACAUGAGGAUCACCCAUGUGAUAUGACAAGAGGAUCAGCCCAGGUAGGUCGCCAUGUCGAAA [pbbbmullin]
71.1 nM

* * *

# Test system: MS2 coat protein
# test-protocol: apparent KD of MS2 coat protein; designed switch direction (-1 OFF switch, 1 ON switch): -1; higher = weaker reporter binding
# test-conditions: input ligand: none
Kind request: treat 50 nM as inclusive, so apparent KD of MS2 coat protein at 50 nM or higher is true (1), anything lower is false (0).

Does ACAUGAGGAUCACCCAUGUCAGGCGGGUCCACUCCGGCUGUUGAGGAUAUAGUUCGGUAUCCGCGCUAGAAGGUGAGGGCCGGC [Aenatbe mod 22] (Eterna round: R96, puzzle: Exclusion NG 3) have a reported apparent KD of MS2 coat protein of at least 50 nM?
false (0)

What about AGCGCCAUCGUGAGAUGGCGUAUUACAUGAGGAUCACCCAUGUAGGAUAUCGAUUGCUUUGCAGUCGAGAAGGACAUGUCCUAG [JL ENG3 3.80 Mod F] (Eterna round: R96, puzzle: Exclusion NG 3) ?
false (0)

Moving on to the next sequence: CGGGUGCGGUGAGGAUAUCCGAAAGGAAGUGUAGGAGAAGGCACCAAGAACAUGAGGAUCACCCAUGUGACCUCAUAAGCCCGG [PowerStrip EXNG 1.9] (Eterna round: R96, puzzle: Exclusion NG 1)
true (1)

Could you do the same for UAGAUACAUGAGGAUCACCCAUGUGAGGAUAUGAGAAUGAAAUGAAAUGAAUGAAGAAUCAGAAGGCACAAAGG [JL-ex1-4.31 salish99 mod] (Eterna round: R97, puzzle: Exclusion 1) , please?
true (1)
